Attribution: the supplement of paper PMC9170038

For each record, write down the corresponding apparent KD of MS2 coat protein.
# System: MS2 coat protein
# assay remarks: apparent KD of MS2 coat protein, switch ON state; designed switch direction (-1 OFF switch, 1 ON switch): -1; higher = weaker reporter binding
# condition notes: FMN input: 0 or 200 uM; Eterna round: R93 (includes R88 designs)
The reply should be a number in nM, with the unit left off.

Write down the reported apparent KD of MS2 coat protein of AAAAAAGGAGGAUAUACGUACAUGUCAAAAGACGUGAAGGGACAUGAGGAUCACCCAUGUAGAAGGUCUAAAAA [JL Part Open 36] , test system: MS2 coat protein.
34.5

Write down the reported apparent KD of MS2 coat protein of AAAAAACAUGAGGAUCACCCAUGUGAGGAUAUACAAAGAAAGACAGGCAAGUAAAGAGGUAGAAGGCGCAAAAA [Default title] , test system: MS2 coat protein.
15.4

Write down the reported apparent KD of MS2 coat protein of AAAAAUGGAGGAUAUACAUGAGGAUCACCCAUGUGUGACUAUACUAUGUGCUCUUCAGGUAGAAGGCCAAAAAA [Gilly Gone Silly 19 - Jieux - Exclusion 3] , test system: MS2 coat protein.
44.3

Write down the reported apparent KD of MS2 coat protein of AGUAUGCGAGGAUAUACAUGAGGAUCACCCAUGUGAGAGAUAAGUGUGAGAAAGACAUGUAGAAGGCGCGUACA [JL Lego Mod 28] , test system: MS2 coat protein.
146

Write down the reported apparent KD of MS2 coat protein of AAGAACUCAGGAUAUGCUAAAGAAAUAAAAAUAAAUAAAGAACAUGAGGAUCACCCAUGUAGAAGGGAGAAGAA [Merkawre Sobekhotep VII] , test system: MS2 coat protein.
76.4

Write down the reported apparent KD of MS2 coat protein of AAGAAUGCAGGAUAUACAUGAAAGAAAGAAAAGAAAAGAAAACAUGAGGAUCACCCAUGUAGAAGGGCAUAGAA [EteRNA is fun!] , test system: MS2 coat protein.
26.8

Write down the reported apparent KD of MS2 coat protein of ACGAAGAGAGGAUAUACGAACAUGUCAAAAGACGUGAAGGGACAUGAGGAUCACCCAUGUAGAAGGCUCUUCGA [Mat - Exclusion 2 - JL mod - D10] , test system: MS2 coat protein.
45.4

Write down the reported apparent KD of MS2 coat protein of GAAAAGUGAGGAUAUACAGAUAAAAAAACGAAAAAAAAUCUGUAGAAGGCACAUGAGGAUCACCCAUGUAAAAA [Mat - Exclusion 4 - Mayanna - D106] , test system: MS2 coat protein.
31.7

Write down the reported apparent KD of MS2 coat protein of UCCUCACAUGAGGAUCACCCAUGUGAGGAUAUGUACAUCAGGAAAAAAAAACUGAUGUACAGAAGGCACAUGAA [Design 10: Super Stable G-C 3] , test system: MS2 coat protein.
13.3
